Hey, just so you know, these numbers are from patent US12414990B2.

Hits (Freq > 0.002%) R: recorded values
Tested on: HLA-A*11:01-restricted antigen-specific CD8+ T cells in patient's PBMC
experimental-details: Highly multiplexed combinatorial pMHC tetramer staining with mass cytometry (epitope mapping, frequency of antigen-specific CD8+ T cells)
study-conditions: patients with detected epitope-specific CD8+ T cells / patients tested; acute resolved (R) group; Freq > 0.002%
quantity-name: Hits (Freq > 0.002%) R

>>> reported_measurement("SQIGAGVYK")
"1/12"
>>> reported_measurement("ATVQGQNLK")
"4/12"
>>> reported_measurement("SVQPTFSVQR")
"1/12"
>>> reported_measurement("GTSGSPIVNR")
"4/12"
>>> reported_measurement("ASCMGLIYNR")
"1/12"
>>> reported_measurement("LTFGRETVLE")
"1/12"
>>> reported_measurement("RTTWSIHAK")
"3/12"
>>> reported_measurement("SVQRNLPFER")
"3/12"
>>> reported_measurement("KTFDSEYVK")
"1/12"
>>> reported_measurement("TTDLEAYFK")
"1/12"
>>> reported_measurement("RTQSPRRRR")
"2/12"

###

Tested on: HLA-A*11:01-restricted antigen-specific CD8+ T cells in patient's PBMC
experimental-details: Highly multiplexed combinatorial pMHC tetramer staining with mass cytometry (epitope mapping, frequency of antigen-specific CD8+ T cells)
study-conditions: Inactive Carrier (InA) CHB patients; patients with detected tetramer+ CD8+ T cells (frequency > 0.002%) / patients in the group; per epitope cluster
quantity-name: Hits (Freq > 0.002%) InA

>>> reported_measurement("LVFQTSER")
"1/13"
>>> reported_measurement("QQGSMASGK")
"1/13"
>>> reported_measurement("STNRQSGRK")
"4/13"
>>> reported_measurement("VTKYLPLDK")
"3/13"
>>> reported_measurement("LSYLHFRK")
"1/13"
>>> reported_measurement("TVNHYFQTR")
"5/13"
